Study target: smooth muscle angiotensin II receptor
Assay name: Assay A: Angiotensin II Binding Activity (125I-angiotensin II displacement, rat uterine membrane preparation)
Reported conditions: 50% displacement of specifically bound 125I-AII, rat uterine membranes, 25° C., 60 min
Description: Assay A: Angiotensin II Binding Activity Compounds of the invention were tested for ability to bind to the smooth muscle angiotensin II receptor using a rat uterine membrane preparation. […] Filters were assayed for radioactivity in a Micromedic gamma counter. […] Specific binding was calculated as total binding minus nonspecific binding. […] Binding data were analyzed by a nonlinear least-squares curve fitting program.
Observation type: pIC50
Friendly reminder that pIC50 comes from taking -log10 of the concentration in mol/L.

CCCCc1cn(CCCC)c(=O)n1Cc1ccc(-c2cnccc2-c2nnn[nH]2)cc1 : 6.80

Measured pIC50, `CCCCn1cc(CC(C)C)n(Cc2ccc(-c3ccccc3-c3nnn[nH]3)nc2)c1=O` : 6.85

Record summary for `CCCCc1cn(C(C)C)c(=O)n1Cc1ccc(-c2ccccc2-c2nnn[nH]2)nc1` : reported pIC50 = 7.70

`CCCCc1cn(-c2ccccc2)c(=O)n1Cc1ccc(-c2ccccc2-c2nnn[nH]2)nc1` yielded pIC50 of 7.35

In plain terms, `CCCCc1cn(-c2c(C)cccc2C)c(=O)n1Cc1ccc(-c2ccccc2-c2nnn[nH]2)nc1` has a documented pIC50 of 8.30

Looking up `CCCCc1cn(CCC2CCCC2)c(=O)n1Cc1ccc(-c2ccccc2-c2nnn[nH]2)nc1` , I see its pIC50 listed as 7.74

Looking up `CCCCc1cn(CC)c(=O)n1Cc1ccc(-c2ccccc2-c2nnn[nH]2)nc1` , I see its pIC50 listed as 7.47

get_value(item= `CCCCc1cn(C2CCCC2)c(=O)n1Cc1ccc(-c2ccccc2-c2nnn[nH]2)nc1` , readout=pIC50) returns 7.00

###

Consider the following molecules and their measured IC50 readings.
Study target: smooth muscle angiotensin II receptor
Assay name: Assay A: Angiotensin II Binding Activity (125I-angiotensin II displacement, rat uterine membrane preparation)
Reported conditions: 50% displacement of specifically bound 125I-AII, rat uterine membranes, 25° C., 60 min
The response must be a number in nM with no trailing unit.

CCCCn1cc(CCC2CC2)n(Cc2ccc(-c3ccccc3-c3nnn[nH]3)nc2)c1=O : 11
CCCCc1cn(CC2CCCC2)c(=O)n1Cc1ccc(-c2ccccc2-c2nnn[nH]2)nc1 : 22
CCCCc1cn(CCC)c(=O)n1Cc1ccc(-c2ccccc2-c2nnn[nH]2)nc1 : 31

// recorded IC50 for `CCCCc1cn(CCC(C)(C)C)c(=O)n1Cc1ccc(-c2ccccc2-c2nnn[nH]2)nc1` : 9.2

The molecule identified as `CCCCc1cn(CCc2cccs2)c(=O)n1Cc1ccc(-c2ccccc2-c2nnn[nH]2)nc1` registered its IC50 at 5

// recorded IC50 for `CCCCc1cn(C)c(=O)n1Cc1ccc(-c2ccccc2-c2nnn[nH]2)nc1` : 47

So, `CCCc1cn(CCC)c(=O)n1Cc1ccc(-c2ccccc2-c2nnn[nH]2)nc1` ? Its IC50 was 38

The molecule identified as `CCCCc1cn(CC(C)(C)C)c(=O)n1Cc1ccc(-c2ccccc2-c2nnn[nH]2)nc1` registered its IC50 at 12

Reported IC50 of `CCCCc1cn(-c2ccccc2C(C)C)c(=O)n1Cc1ccc(-c2ccccc2-c2nnn[nH]2)nc1` : 14

Input `CCCCc1cn(CCc2ccccc2)c(=O)n1Cc1ccc(-c2ccccc2-c2nnn[nH]2)nc1` . Output IC50: 3.6

###

Study target: smooth muscle angiotensin II receptor
Assay name: Assay A: Angiotensin II Binding Activity (125I-angiotensin II displacement, rat uterine membrane preparation)
Reported conditions: 50% displacement of specifically bound 125I-AII, rat uterine membranes, 25° C., 60 min
Experimental: Assay A: Angiotensin II Binding Activity Compounds of the invention were tested for ability to bind to the smooth muscle angiotensin II receptor using a rat uterine membrane preparation. […] Filters were assayed for radioactivity in a Micromedic gamma counter. […] Specific binding was calculated as total binding minus nonspecific binding. […] Binding data were analyzed by a nonlinear least-squares curve fitting program.
Collected IC50 values appear next to each entry.
Give the quantity in nM, number only.

CCCCc1cn(C2CCCCC2)c(=O)n1Cc1ccc(-c2ccccc2-c2nnn[nH]2)nc1 [Example 21] : 20

The value of IC50 measured for the molecule CCCCc1cn(CCCC)c(=O)n1Cc1ccc(-c2cccnc2-c2nnn[nH]2)cc1 [Example 43] turned out to be 89

Form: molecule = CCCCCn1cc(CCCC)n(Cc2ccc(-c3ccccc3-c3nnn[nH]3)nc2)c1=O [Example 15] ; IC50 = 10

Quick note, IC50 for CCCCc1cn(CC(CC)CC)c(=O)n1Cc1ccc(-c2ccccc2-c2nnn[nH]2)nc1 [Example 20] landed at 16

###

Tested on: rabbit aortic rings
Assay name: Assay B: In Vitro Vascular Smooth Muscle Response for AII (antagonist activity in rabbit aortic rings)
Assay type: cell-based
Reported conditions: Oryctolagus cuniculus, first value of the pair (aorta rings from two rabbits); test antagonist at 10^-5 M; AII contraction; read-out: Assay B pA2 (converted)
Kb reference
Lab book: enter the figure in nM, no units written.

The cases that follow already have their Kb on record.
CCCCc1cn(C2CCCCC2)c(=O)n1Cc1ccc(-c2ccccc2-c2nnn[nH]2)nc1 : 0.724
CCCCCc1cn(CCCC)c(=O)n1Cc1ccc(-c2ccccc2-c2nnn[nH]2)nc1 : 13.5
CCCn1cc(CC(C)C)n(Cc2ccc(-c3ccccc3-c3nnn[nH]3)nc2)c1=O : 34.7
CCCCn1cc(CCC(C)C)n(Cc2ccc(-c3ccccc3-c3nnn[nH]3)nc2)c1=O : 2.29

Entry `CCCCc1cn(C(C)C)c(=O)n1Cc1ccc(-c2ccccc2-c2nnn[nH]2)nc1` — recorded Kb = 3.8

Reported Kb for `CCCCc1cn(CC)c(=O)n1Cc1ccc(-c2ccccc2-c2nnn[nH]2)nc1` was 3.63

Just so you know, measured Kb for `CCCCc1cn(CC2CCCC2)c(=O)n1Cc1ccc(-c2ccccc2-c2nnn[nH]2)nc1` came out at 0.646

# Kb (compound: `CCCCc1cn(CCC2CC2)c(=O)n1Cc1ccc(-c2ccccc2-c2nnn[nH]2)nc1` ) is 1.78

// `CCCCn1cc(C2CCCCC2)n(Cc2ccc(-c3ccccc3-c3nnn[nH]3)nc2)c1=O` : Kb value = 17.8

Item: `CCCCc1cn(C2CCCC2)c(=O)n1Cc1ccc(-c2ccccc2-c2nnn[nH]2)nc1` | Kb: 0.912

`CCCCc1cn(-c2ccccc2Cl)c(=O)n1Cc1ccc(-c2ccccc2-c2nnn[nH]2)nc1` yielded Kb of 1.58

Record summary for `CCCCc1cn(CCC2CCCC2)c(=O)n1Cc1ccc(-c2ccccc2-c2nnn[nH]2)nc1` : reported Kb = 1.82

###

System: pressor response to AII
Assay name: Assay C: In Vivo Intragastric Pressor Assay Response for AII Antagonists
Set-up: species or system rat
Reported conditions: Dose: 3 mg/kg (i.g.), Sprague-Dawley rats, AII challenges up to 180 minutes after gavage
Observation type: Assay C Duration

CCCCc1cn(-c2c(F)cccc2F)c(=O)n1Cc1ccc(-c2ccccc2-c2nnn[nH]2)nc1 : 120 min

Measured Assay C Duration of `CCCCc1cn(-c2ccccc2C)c(=O)n1Cc1ccc(-c2ccccc2-c2nnn[nH]2)nc1` : >180 min

In plain terms, `CCCCc1cn(CCC2CCCC2)c(=O)n1Cc1ccc(-c2ccccc2-c2nnn[nH]2)nc1` has a documented Assay C Duration of >180 min

Please fill in: Assay C Duration reported for `CCCCc1cn(C(C)C)c(=O)n1Cc1ccc(-c2ccccc2-c2nnn[nH]2)nc1` = >180 min

###

Study target: smooth muscle angiotensin II receptor
Assay name: Assay A: Angiotensin II Binding Activity (125I-angiotensin II displacement, rat uterine membrane preparation)
Reported conditions: 50% displacement of specifically bound 125I-AII, rat uterine membranes, 25° C., 60 min
Please use the following IC50 ranges when assigning a class: low class: < 9 nM; middle class: ≥ 9 nM and < 50 nM; high class: ≥ 50 nM

These solved cases illustrate the format of a correct answer.
CCCCc1cn(CCCC)c(=O)n1Cc1ccc(-c2ccccc2-c2nnn[nH]2)nc1 [Example 1] : low class
CCCCc1cn(CCCC)c(=O)n1Cc1ccc(-c2ccncc2-c2nnn[nH]2)cc1 [Example 42] : high class
CCCCc1cn(-c2c(F)cccc2F)c(=O)n1Cc1ccc(-c2ccccc2-c2nnn[nH]2)nc1 [Example 36] : low class
CCCCn1cc(C2CCCC2)n(Cc2ccc(-c3ccccc3-c3nnn[nH]3)nc2)c1=O [Example 8] : high class
CCCCc1cn(C23CC4CC(CC(C4)C2)C3)c(=O)n1Cc1ccc(-c2ccccc2-c2nnn[nH]2)nc1 [Example 30] : high class
CCCCc1cn(CCC2=CCCC2)c(=O)n1Cc1ccc(-c2ccccc2-c2nnn[nH]2)nc1 [Example 28] : middle class
CCCCc1cn(-c2ccccc2Cl)c(=O)n1Cc1ccc(-c2ccccc2-c2nnn[nH]2)nc1 [Example 32] : low class
CCCCc1cn(C(C)(C)C)c(=O)n1Cc1ccc(-c2ccccc2-c2nnn[nH]2)nc1 [Example 17] : middle class
CCCCc1cn(CCC(C)C)c(=O)n1Cc1ccc(-c2ccccc2-c2nnn[nH]2)nc1 [Example 14] : low class
CCCn1cc(CC(C)C)n(Cc2ccc(-c3ccccc3-c3nnn[nH]3)nc2)c1=O [Example 3] : high class

We now examine a further molecule.
Hello team, could you let me know which band the following molecule falls into: CCCCn1cc(CCC(C)C)n(Cc2ccc(-c3ccccc3-c3nnn[nH]3)nc2)c1=O [Example 5]
middle class

Origin of the recorded values: patent US6492397B1
